# Tested on: SUDIPGIV (diffuse intrinsic pontine glioma line)
# runDescription: growth inhibition (% activity, log2 RLU normalised to DMSO / staurosporine); higher = more growth inhibition
# conditionDetails: 33 µM

- molecule: "NC(=O)c1cnccn1"
  growth inhibition, %: -2.49
- molecule: "NC(=O)CC[C@H](N)C(=O)O"
  growth inhibition, %: -1.24
- molecule: "COC(=O)C1=C(C)NC(C)=C(C(=O)OC(C)C)C1c1cccc2nonc12 (stereo not drawn)"
  growth inhibition, %: -4.11
- molecule: "CC(C)(C)C(=O)OCOP(=O)(COCCn1cnc2c(N)ncnc21)OCOC(=O)C(C)(C)C"
  growth inhibition, %: 13.4
- molecule: "CO[C@H]1/C=C/O[C@@]2(C)Oc3c(C)c(O)c4c(O)c(c(/C=N/N5CCN(C6CCCC6)CC5)c(O)c4c3C2=O)NC(=O)/C(C)=C\\C=C\\[C@H](C)[C@H](O)[C@@H](C)[C@@H](O)[C@@H](C)[C@H](OC(C)=O)[C@@H]1C"
  growth inhibition, %: -0.888
- molecule: "CN(N=O)C(=O)N[C@H]1C(O)O[C@H](CO)[C@@H](O)[C@@H]1O (mixture of isomers)"
  growth inhibition, %: 1.45
- molecule: "CN(C)CCC(c1ccc(Cl)cc1)c1ccccn1 (racemic)"
  growth inhibition, %: 1.92
- molecule: "NC(Cc1cc(I)c(Oc2cc(I)c(O)c(I)c2)c(I)c1)C(=O)O (stereo not drawn)"
  growth inhibition, %: 10.6
- molecule: "CC(=O)O[C@H]1C[C@@H]2CC[C@@H]3[C@H](CC[C@@]4(C)[C@H]3C[C@H]([N+]3(C)CCCCC3)[C@@H]4OC(C)=O)[C@@]2(C)C[C@@H]1N1CCCCC1"
  growth inhibition, %: -0.377
- molecule: "C[C@]12CC[C@H](O)CC1=CC[C@@H]1[C@@H]2CC[C@]2(C)C(c3cccnc3)=CC[C@@H]12"
  growth inhibition, %: 0.327
- molecule: "[O-]n1ccccc1=S.[O-]n1ccccc1=S.[Zn+2]"
  growth inhibition, %: 48.4
- molecule: "Oc1c(Cl)cc(Cl)c2cccnc12"
  growth inhibition, %: 3.67
- molecule: "O=c1cc[nH]c(=S)[nH]1"
  growth inhibition, %: 1.67
- molecule: "CC[C@H](C)C[C@H](C)CCCCCCCCC(=O)N[C@H]1C[C@@H](O)[C@@H](NCCN)NC(=O)[C@@H]2[C@@H](O)CCN2C(=O)[C@H]([C@H](O)CCN)NC(=O)[C@H]([C@H](O)[C@@H](O)c2ccc(O)cc2)NC(=O)[C@@H]2C[C@@H](O)CN2C(=O)[C@H]([C@@H](C)O)NC1=O"
  growth inhibition, %: -1.11
- molecule: "Nc1nnc(-c2cccc(Cl)c2Cl)c(N)n1"
  growth inhibition, %: -1.97
- molecule: "O=C1CCc2cc(OCCCCc3nnnn3C3CCCCC3)ccc2N1"
  growth inhibition, %: 3.38
- molecule: "CCOc1ccc2nc3cc(N)ccc3c(N)c2c1"
  growth inhibition, %: 1.88
- molecule: "Nc1ccc(S(=O)(=O)Nc2ccccn2)cc1"
  growth inhibition, %: -1.02

----------
Each item that follows carries a reported growth inhibition.
# Test system: HNSC
# runDescription: growth inhibition (% activity, log2 RLU normalised to DMSO / staurosporine); higher = more growth inhibition
# conditionDetails: 33 µM
readoutType: growth inhibition (%)

- compound: "C[C@]12C=CC(=O)N[C@@H]1CC[C@@H]1[C@@H]2CC[C@]2(C)[C@@H](C(=O)Nc3cc(C(F)(F)F)ccc3C(F)(F)F)CC[C@@H]12"
  observedMeasurement: -1.51
- compound: "O=C(O)[C@H](CC(=O)N1C[C@H]2CCCC[C@H]2C1)Cc1ccccc1"
  observedMeasurement: 1.48
- compound: "C[C@@]12C[C@@]3(O)O[C@@H](O1)[C@]1(COC(=O)c4ccccc4)[C@H]3C[C@@]12O[C@@H]1O[C@H](CO)[C@@H](O)[C@H](O)[C@H]1O"
  observedMeasurement: -1.36
- compound: "COc1cc(C(=O)NC2CCCNC2)cc(OC)c1OC (stereo not drawn)"
  observedMeasurement: 6.28
- compound: "C=C1c2c(Cl)ccc(O)c2C(=O)C2=C(O)[C@]3(O)C(=O)C(C(N)=O)=C(O)[C@@H](N(C)C)[C@@H]3[C@@H](O)[C@H]12.O=C(O)c1cc(S(=O)(=O)O)ccc1O"
  observedMeasurement: 8.17
- compound: "CCOC(=O)CC(=O)N1CCSC1COc1ccccc1OC (stereo not drawn)"
  observedMeasurement: 3.53
- compound: "COc1ccc2cc(CCC(C)=O)ccc2c1"
  observedMeasurement: 31.7
- compound: "CC[C@H]1OC(=O)[C@H](C)[C@@H](O[C@H]2C[C@@](C)(OC)[C@@H](O)[C@H](C)O2)[C@H](C)[C@@H](O[C@@H]2O[C@H](C)C[C@H](N(C)C)[C@H]2O)[C@](C)(OC)C[C@@H](C)C(=O)[C@H](C)[C@@H](O)[C@]1(C)O"
  observedMeasurement: -3.32

----------
// reported growth inhibition per item
# Tested on: DIPGX37 (H3.3 K27M diffuse intrinsic pontine glioma line)
# runDescription: growth inhibition (% activity, log2 RLU normalised to DMSO / staurosporine); higher = more growth inhibition
# conditionDetails: 33 µM

- compound: "CC(C)C[C@H](NC(=O)[C@H](Cc1ccccc1)NC(=O)c1cnccn1)B(O)O"
  unitsSymbol: "%"
  growth inhibition: 60.7
- compound: "CC(C)CN(C[C@@H](O)[C@H](Cc1ccccc1)NC(=O)O[C@H]1CO[C@H]2OCC[C@H]21)S(=O)(=O)c1ccc(N)cc1"
  unitsSymbol: "%"
  growth inhibition: -0.683
- compound: "CC(C)(C)CC(C)(C)c1ccc(O)c(Cc2ccc(Cl)cc2Cl)c1"
  unitsSymbol: "%"
  growth inhibition: -4.36
- compound: "N=c1nc(N2CCCCC2)cc(N)n1O"
  unitsSymbol: "%"
  growth inhibition: -0.191
- compound: "C[C@H](Cc1cc2c(c(C(N)=O)c1)N(CCCO)CC2)NCCOc1ccccc1OCC(F)(F)F"
  unitsSymbol: "%"
  growth inhibition: 2.46
- compound: "Cc1oncc1C(=O)Nc1ccc(C(F)(F)F)cc1"
  unitsSymbol: "%"
  growth inhibition: 9.13
- compound: "Cc1nnc(C(C)C)n1C1C[C@H]2CC[C@@H](C1)N2CC[C@H](NC(=O)C1CCC(F)(F)CC1)c1ccccc1 (stereo in doubt)"
  unitsSymbol: "%"
  growth inhibition: 1.42
- compound: "c1cnc2cc3c(cc2n1)[C@@H]1CNC[C@H]3C1"
  unitsSymbol: "%"
  growth inhibition: -2.8
- compound: "CC(=O)[C@H]1CC[C@H]2[C@@H]3CC=C4C[C@@H](O)CC[C@]4(C)[C@H]3CC[C@]12C"
  unitsSymbol: "%"
  growth inhibition: -0.0978
- compound: "CC(C)OC(=O)C(C(=O)OC(C)C)=C1SC=CS1"
  unitsSymbol: "%"
  growth inhibition: 6.67
- compound: "COC(=O)Nc1nc2cc(C(=O)c3ccc(F)cc3)ccc2[nH]1"
  unitsSymbol: "%"
  growth inhibition: 7.48
- compound: "Clc1ccc2nsnc2c1NC1=NCCN1"
  unitsSymbol: "%"
  growth inhibition: -2.25
- compound: "CCOC(=O)O[C@]1(C(=O)OCCl)CC[C@H]2[C@@H]3CCC4=CC(=O)C=C[C@]4(C)[C@H]3[C@@H](O)C[C@@]21C"
  unitsSymbol: "%"
  growth inhibition: 4.19
- compound: "CN(C)CCCN1c2ccccc2CCc2ccc(Cl)cc21"
  unitsSymbol: "%"
  growth inhibition: 0.768
- compound: "Nc1nnc(-c2cccc(Cl)c2Cl)c(N)n1"
  unitsSymbol: "%"
  growth inhibition: -0.569
- compound: "O=C(N/N=C/c1ccc([N+](=O)[O-])o1)c1ccc(O)cc1"
  unitsSymbol: "%"
  growth inhibition: 2.69
- compound: "Cc1ccccc1N1C(=O)c2cc(S(N)(=O)=O)c(Cl)cc2NC1C (centres undefined)"
  unitsSymbol: "%"
  growth inhibition: 0.236
- compound: "C[C@H]1C[C@H]2[C@@H]3CCC4=CC(=O)C=C[C@]4(C)[C@H]3C(=O)C[C@]2(C)[C@@]1(O)C(=O)CO"
  unitsSymbol: "%"
  growth inhibition: -0.985
- compound: "CO[C@H]1/C=C/O[C@@]2(C)Oc3c(C)c(O)c4c(O)c(c(/C=N/N5CCN(C6CCCC6)CC5)c(O)c4c3C2=O)NC(=O)/C(C)=C\\C=C\\[C@H](C)[C@H](O)[C@@H](C)[C@@H](O)[C@@H](C)[C@H](OC(C)=O)[C@@H]1C"
  unitsSymbol: "%"
  growth inhibition: 1.82

----------
The entries below come with measured growth inhibition values attached.
# Test system: DIPGX37
# runDescription: growth inhibition (% activity, log2 RLU normalised to DMSO / staurosporine); higher = more growth inhibition
# conditionDetails: 33 µM
readoutType: growth inhibition (%)

- compound: "CC(=O)OCC(=O)[C@@]1(O)CC[C@H]2[C@@H]3CCC4=CC(=O)C=C[C@]4(C)[C@H]3[C@@H](O)C[C@@]21C"
  observedMeasurement: 0.724
- compound: "O=C(O)c1cc(-c2ccccc2)nc2ccccc12"
  observedMeasurement: 2.97
- compound: "COc1cc(NC(C)CCCN)c2ncccc2c1 (stereo not drawn)"
  observedMeasurement: 14
- compound: "O=C(C1CCCCC1)N1CC(=O)N2CCc3ccccc3C2C1 (stereo not drawn)"
  observedMeasurement: 3.23
- compound: "O=C1NCC2(CCN(CCc3ccccc3)CC2)O1"
  observedMeasurement: -0.568
- compound: "CCN(CC)C(=S)SSC(=S)N(CC)CC"
  observedMeasurement: 3.53
- compound: "N=C(N=C(N)N)N1CCOCC1"
  observedMeasurement: 3.09
- compound: "CCCCC1=NC2(CCCC2)C(=O)N1Cc1ccc(-c2ccccc2-c2nnn[nH]2)cc1"
  observedMeasurement: 3.8
- compound: "Cc1c(-c2ccccc2)oc2c(C(=O)OCCN3CCCCC3)cccc2c1=O"
  observedMeasurement: -1.55
- compound: "O=C(O)C(=O)O.[NH-]C1CCCCC1[NH-].[Pt+2] (stereo not drawn)"
  observedMeasurement: 2.05
- compound: "Nc1nc2n[nH]nc2c(=O)[nH]1"
  observedMeasurement: 13.2
- compound: "NC(=O)OCC(COC(N)=O)c1ccccc1"
  observedMeasurement: 2.98
- compound: "CC(C)(O)c1ccccc1CC[C@@H](SCC1(CC(=O)O)CC1)c1cccc(/C=C/c2ccc3ccc(Cl)cc3n2)c1"
  observedMeasurement: 0.461
- compound: "CCN[C@@H]1C[C@H](N)[C@@H](O[C@H]2OC(CN)=CC[C@H]2N)[C@H](O)[C@H]1O[C@H]1OC[C@](C)(O)[C@H](NC)[C@H]1O"
  observedMeasurement: 3.8
- compound: "CC[C@H](C)C(=O)O[C@H]1CCC=C2C=C[C@H](C)[C@H](CC[C@@H]3C[C@@H](O)CC(=O)O3)[C@H]21"
  observedMeasurement: -2.48
- compound: "Cc1ccc(NC(=O)c2ccc(CN3CCN(C)CC3)cc2)cc1Nc1nc(-c2cccnc2)cs1"
  observedMeasurement: 4.57
- compound: "Nc1ncn(C2OC(CO)C(O)C2O)c(=O)n1 (stereo not drawn)"
  observedMeasurement: -0.711
- compound: "CCn1cc(C(=O)O)c(=O)c2cc(F)c(N3CCNCC3)nc21"
  observedMeasurement: 0.315
- compound: "CC(O)(P(=O)(O)O)P(=O)(O)O"
  observedMeasurement: 1.06
- compound: "O=C(O)C1(C(=O)O)CCC1.[NH2-].[NH2-].[Pt+2]"
  observedMeasurement: 0.00905
- compound: "CCn1nc(C(=O)O)c(=O)c2cc3c(cc21)OCO3"
  observedMeasurement: 0.624
- compound: "CC(=O)N1CCN(c2ccc(OCC3COC(Cn4ccnc4)(c4ccc(Cl)cc4Cl)O3)cc2)CC1 (stereo not drawn)"
  observedMeasurement: 1.48
- compound: "CCCCOc1ccc(CC(=O)NO)cc1"
  observedMeasurement: 1.97
